# PROTOCOL NOTES: Inhibition of CDK1/Cyclin B from M phase starfish oocytes
# Parameters: species or system Marthasterias glacialis
# STUDY CONDITIONS: oocyte
ATTRIBUTE MEASURED: pIC50
// pIC50 here means minus log10 of the molar concentration (mol/L)

- COc1ccc(C(=O)Nc2nc(NCc3ccc(Cl)cc3)c3ncn(C(C)C)c3n2)cc1: 4.40
- CCCC(=O)Nc1nc(NCc2ccc(Cl)cc2)c2ncn(C(C)C)c2n1: 5.54

Inquiry: Could you share which pIC50 value was measured for COCCNc1nc(NC(=O)CC(C)C)nc2c1ncn2C(C)C ?
Reply text: 5.02

Inquiry: Then COCCNc1nc(C(=O)NCC(C)C)nc2c1ncn2C(C)C ?
Reply text: 5.14

----------
In this section, each of the compounds is paired with its reported pIC50.
# PROTOCOL NOTES: Inhibition of CDK1/Cyclin B from M phase starfish oocytes
# Set-up: species or system Marthasterias glacialis
# STUDY CONDITIONS: oocyte
// pIC50 here means minus log10 of the molar concentration (mol/L)

Worked cases, pIC50 given:
* COc1ccc(CNc2nc(NC(=O)CC(C)=O)nc3c2ncn3C(C)C)cc1 | 5.62
* CC(C)CC(=O)Nc1nc(NCc2ccc(Cl)cc2)c2ncn(C(C)C)c2n1 | 5.52
* CCCC(=O)Nc1nc(NCc2ccc(OC)cc2)c2ncn(C(C)C)c2n1 | 5.36

Inquiry: Could you share which pIC50 value was measured for COc1ccc(CNc2nc(C(=O)NCC(C)C)nc3c2ncn3C(C)C)cc1 ?
Reply text: 5.62

Inquiry: Then COc1ccc(CNc2nc(C(=O)NC(C)C)nc3c2ncn3C(C)C)cc1 ?
Reply text: 5.64

Inquiry: Then CC(C)C(=O)Nc1nc(NCc2ccc(Cl)cc2)c2ncn(C(C)C)c2n1 ?
Reply text: 5.92

----------
# PROTOCOL NOTES: Inhibition of CDK1/Cyclin B from M phase starfish oocytes
# Set-up: species or system Marthasterias glacialis
# STUDY CONDITIONS: oocyte
In this section, each of the compounds is paired with its reported log10 of IC50.
Transform log10 | Measure IC50 | Unit µM

Worked cases, log10 of IC50 given:
• COCCNc1nc(C(=O)NC(C)C)nc2c1ncn2C(C)C = 0.92
• COc1ccc(CNc2nc(NC(=O)CC(C)C)nc3c2ncn3C(C)C)cc1 = 0.36
• CC(C)NC(=O)c1nc(NCc2ccc(Cl)cc2)c2ncn(C(C)C)c2n1 = 0.23
• CCCC(=O)Nc1nc(NCCOC)c2ncn(C(C)C)c2n1 = 1.11
• COc1ccc(CNc2nc(NC(=O)c3ccc(OC)cc3)nc3c2ncn3C(C)C)cc1 = 0.66

Consider now this further compound.
Inquiry: Could you share which log10 of IC50 value was measured for COc1ccc(CNc2nc(NC(=O)C(C)C)nc3c2ncn3C(C)C)cc1 ?
Reply text: -0.03

----------
# TGT: Cyclin-dependent kinase 5/CDK5 activator 1 (Homo sapiens, UniProt Q00535)
# Sequence (Q00535 whole entry): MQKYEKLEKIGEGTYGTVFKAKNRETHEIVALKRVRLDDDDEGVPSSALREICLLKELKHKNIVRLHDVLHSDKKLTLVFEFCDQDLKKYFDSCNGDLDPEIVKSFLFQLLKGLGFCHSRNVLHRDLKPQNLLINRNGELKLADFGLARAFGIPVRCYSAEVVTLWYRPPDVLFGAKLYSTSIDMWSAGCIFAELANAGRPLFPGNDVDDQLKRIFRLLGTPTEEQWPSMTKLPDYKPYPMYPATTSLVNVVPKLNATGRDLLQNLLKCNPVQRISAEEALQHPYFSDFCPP
# Sequence (Q15078 whole entry, further chain): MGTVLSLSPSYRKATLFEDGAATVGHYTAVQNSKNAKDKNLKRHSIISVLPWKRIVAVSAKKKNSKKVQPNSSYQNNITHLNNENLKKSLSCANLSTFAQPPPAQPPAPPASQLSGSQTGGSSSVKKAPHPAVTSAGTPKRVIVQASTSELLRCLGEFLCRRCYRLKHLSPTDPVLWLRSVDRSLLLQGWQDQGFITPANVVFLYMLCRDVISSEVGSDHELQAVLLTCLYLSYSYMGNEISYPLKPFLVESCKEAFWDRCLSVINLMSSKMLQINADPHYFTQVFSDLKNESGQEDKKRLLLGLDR
# PROTOCOL NOTES: Inhibition of recombinant mammalian CDK5/p25 expressed in Escherichia coli
ATTRIBUTE MEASURED: IC50 (µM)
Give a bare numeral; the unit µM is implied.

- CCCC(=O)Nc1nc(NCc2ccc(OC)cc2)c2ncn(C(C)C)c2n1: 3.9
- COc1ccc(CNc2nc(NC(=O)C(C)C)nc3c2ncn3C(C)C)cc1: 1.3
- COCCNc1nc(NC(=O)CC(C)C)nc2c1ncn2C(C)C: 6.6
- COc1ccc(CNc2nc(C(=O)NC(C)C)nc3c2ncn3C(C)C)cc1: 2.4
- CC(C)C(=O)Nc1nc(NCc2ccc(Cl)cc2)c2ncn(C(C)C)c2n1: 0.9
- COCCNc1nc(NC(=O)C(C)C)nc2c1ncn2C(C)C: 7
- COCCNc1nc(C(=O)NCC(C)C)nc2c1ncn2C(C)C: 16
- COc1ccc(CNc2nc(NC(=O)CC(C)=O)nc3c2ncn3C(C)C)cc1: 1.6

Inquiry: Could you share which IC50 value was measured for COc1ccc(CNc2nc(NC(=O)CC(C)C)nc3c2ncn3C(C)C)cc1 ?
Reply text: 1.8

Inquiry: Then COc1ccc(CNc2nc(C(=O)NCC(C)C)nc3c2ncn3C(C)C)cc1 ?
Reply text: 2.1

Inquiry: Then COc1ccc(CNc2nc(NC(=O)c3ccc(OC)cc3)nc3c2ncn3C(C)C)cc1 ?
Reply text: 3.4

----------
# TGT: Cyclin-dependent kinase 5/CDK5 activator 1 (Homo sapiens)
# PROTOCOL NOTES: Inhibition of recombinant mammalian CDK5/p25 expressed in Escherichia coli
Friendly reminder: IC50 below 10 µM is True, at or above is False.

Worked examples follow.
• COc1ccc(C(=O)Nc2nc(NCc3ccc(Cl)cc3)c3ncn(C(C)C)c3n2)cc1 = False
• CC(C)NC(=O)c1nc(NCc2ccc(Cl)cc2)c2ncn(C(C)C)c2n1 = True
• COCCNc1nc(C(=O)NC(C)C)nc2c1ncn2C(C)C = False
• CC(C)CC(=O)Nc1nc(NCc2ccc(Cl)cc2)c2ncn(C(C)C)c2n1 = True

Inquiry: Dear reviewer, please state whether CCCC(=O)Nc1nc(NCc2ccc(Cl)cc2)c2ncn(C(C)C)c2n1 has IC50 strictly beneath 10 µM.
Reply text: True

Every entry's value here was drawn from ChEMBL document CHEMBL1144519.
